target: YKL-40 (Homo sapiens (Human)); experiment: YKL-40:4 assay, competitive chitin binding site AlphaScreen; conditions: competition with biotinylated compound 4 (20 nM), YKL-40-histag 2.5 nM
Counter-ions that a name gives are not always drawn.

{"COMPOUND": "CN1CCN(C2CCN(c3ccccn3)CC2)[C@@H](Cc2ccc(Cl)cc2)C1 [compound 64, 2,2,2-trifluoroacetate]", "IC50": "0.1 to 1 µM"}
{"COMPOUND": "C[C@H]1CN(C2CCN(c3ncnc(Cl)n3)CC2)[C@@H](Cc2ccc(Cl)cc2)CO1 [compound 169, 2,2,2-trifluoroacetate]", "IC50": "> 100 µM"}
{"COMPOUND": "C[C@H]1CN(C2CCN(c3c(F)cccc3C#N)CC2)[C@@H](Cc2ccc(Cl)cc2)CO1 [compound 118, 2,2,2-trifluoroacetate]", "IC50": "> 100 µM"}
{"COMPOUND": "Clc1ccc(C[C@H]2CN3CCC[C@H]3CN2C2CCN(c3ccccn3)CC2)cc1", "IC50": "< 0.1 µM"}
{"COMPOUND": "C[C@H]1CN(C2CCN(c3cc(CO)ccn3)CC2)[C@@H](Cc2ccc(Cl)cc2)CO1 [compound 130, 2,2,2-trifluoroacetate]", "IC50": "> 100 µM"}
{"COMPOUND": "C[C@H]1CN(C2CCN(c3ncnc(N)n3)CC2)[C@@H](Cc2ccc(Cl)cc2)CO1 [compound 174, 2,2,2-trifluoroacetate]", "IC50": "> 100 µM"}
{"COMPOUND": "Clc1ccc(C[C@H]2COc3ccccc3CN2C2CCN(c3ccccn3)CC2)cc1 [compound 81, hydrochloride]", "IC50": "> 100 µM"}
{"COMPOUND": "C[C@H]1CN(C2CCN(c3cccc(C#N)n3)CC2)[C@@H](Cc2ccc(Cl)cc2)CO1 [Example 18, 2,2,2-trifluoroacetate]", "IC50": "> 100 µM"}
{"COMPOUND": "C[C@H]1CN(C2CCN(c3ncns3)CC2)[C@@H](Cc2ccc(Cl)cc2)CO1 [compound 179, 2,2,2-trifluoroacetate]", "IC50": "> 100 µM"}
{"COMPOUND": "Cc1ccnc(N2CCC(N3C[C@H](C)OC[C@@H]3Cc3ccc(Cl)cc3)CC2)n1 [Example 39, dihydrochloride]", "IC50": "0.1 to 1 µM"}
{"COMPOUND": "Cc1cnnc(N2CCC(N3C[C@H](C)OC[C@@H]3Cc3ccc(Cl)cc3)CC2)c1 [Example 30, 2,2,2-trifluoroacetate]", "IC50": "1 to 10 µM"}
{"COMPOUND": "C[C@H]1CN(C2CCN(c3cc(O)ccn3)CC2)[C@@H](Cc2ccc(Cl)cc2)CO1 [compound 161, 2,2,2-trifluoroacetate]", "IC50": "10 to 100 µM"}
{"COMPOUND": "CO[C@H]1CCN(C2CCN(c3ccccn3)CC2)[C@@H](Cc2ccc(Cl)cc2)C1 [compound 109, 2,2,2-trifluoroacetate]", "IC50": "0.1 to 1 µM"}
{"COMPOUND": "C[C@H]1CN(C2CCN(c3ccnc(N)n3)CC2)[C@@H](Cc2ccc(Cl)cc2)CO1 [compound 67, 2,2,2-trifluoroacetate]", "IC50": "> 100 µM"}

----------
molecular target: YKL-40 (Homo sapiens (Human), UniProt P36222); experiment: YKL-40:4 assay, competitive chitin binding site AlphaScreen; conditions: competition with biotinylated compound 4 (20 nM), YKL-40-histag 2.5 nM
Sequence (P36222 22-383): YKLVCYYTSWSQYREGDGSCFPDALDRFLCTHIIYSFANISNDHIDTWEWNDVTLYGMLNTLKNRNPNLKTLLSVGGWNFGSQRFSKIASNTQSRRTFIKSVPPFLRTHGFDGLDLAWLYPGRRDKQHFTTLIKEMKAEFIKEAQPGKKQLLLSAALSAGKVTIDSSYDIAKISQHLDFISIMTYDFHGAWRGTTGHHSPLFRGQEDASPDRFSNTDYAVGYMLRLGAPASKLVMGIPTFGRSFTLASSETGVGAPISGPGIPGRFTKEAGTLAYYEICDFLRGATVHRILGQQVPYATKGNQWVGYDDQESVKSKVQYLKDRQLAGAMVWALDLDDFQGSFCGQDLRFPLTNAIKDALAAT
pIC50: −log10 of the molar value. Structures can show the parent of a compound that is named as a salt.
pIC50: recorded values

{"COMPOUND": "Clc1ccc(C[C@H]2COCCN2C2CCN(c3ccccn3)CC2)cc1 [compound 88, 2,2,2-trifluoroacetate]", "pIC50": "6.00 to 7.00"}
{"COMPOUND": "C[C@H]1CN(C2CCN(c3ccnc(F)c3)CC2)[C@@H](Cc2ccc(Cl)cc2)CO1 [Example 15, 2,2,2-trifluoroacetate]", "pIC50": "5.00 to 6.00"}
{"COMPOUND": "CC1CC(N2C[C@H](C)OC[C@@H]2Cc2ccc(Cl)cc2)CCN1c1cc(Cl)ccn1 (stereo partly shown) [Example 34, 2,2,2-trifluoroacetate]", "pIC50": "6.00 to 7.00"}
{"COMPOUND": "CNC(=O)[C@H]1CN(C2CCN(c3ccccn3)CC2)[C@@H](Cc2ccc(Cl)cc2)CO1 [compound 154, hydrochloride]", "pIC50": "6.00 to 7.00"}
{"COMPOUND": "C[C@H]1CN(C2CCN(c3ncc(F)cn3)CC2)[C@@H](Cc2ccc(Cl)cc2)CO1 [compound 46, 2,2,2-trifluoroacetate]", "pIC50": "5.00 to 6.00"}
{"COMPOUND": "C[C@H]1CN(C2CCN(c3ncc(F)cc3F)CC2)[C@@H](Cc2ccc(Cl)cc2)CO1 [Example 25, 2,2,2-trifluoroacetate]", "pIC50": "< 4.00"}
{"COMPOUND": "C[C@H]1CN(C2CCN(c3nccc4ccccc34)CC2)[C@@H](Cc2ccc(Cl)cc2)CO1 [compound 116, 2,2,2-trifluoroacetate]", "pIC50": "< 4.00"}
{"COMPOUND": "C[C@H]1CN(C2CCN(c3cc(Br)ccn3)CC2)[C@@H](Cc2ccc(Cl)cc2)CO1 [compound 113, 2,2,2-trifluoroacetate]", "pIC50": "6.00 to 7.00"}
{"COMPOUND": "CO[C@@H]1CCN(C2CCN(c3ccccn3)CC2)[C@@H](Cc2ccc(Cl)cc2)C1 [compound 108, 2,2,2-trifluoroacetate]", "pIC50": "> 7.00"}
{"COMPOUND": "C[C@H]1CN(C2CCN(c3ccc(F)cn3)CC2)[C@@H](Cc2ccc(Cl)cc2)CO1 [Example 9, 2,2,2-trifluoroacetate]", "pIC50": "5.00 to 6.00"}

Where do these numbers come from? They come from patent US20230278996A1.
